Assign TGI to each entry below.
# Test system: T-47D breast
# PROTOCOL_DETAILS: NCI tumour cell line growth inhibition, 48 h

| COMPOUND | MEAS_VALUE |
| --- | --- |
| COc1cc2c3c(n(CCCCl)c(=O)c2cc1OC)-c1ccc(C#N)cc1C3=O | > 100 µM |
| CCNc1ncnc2n[nH]nc12 | > 100 µM |
| CC(C)[C@@H]1CC[C@@H]2[C@@H]1[C@H](OC(=O)/C=C/c1ccccc1)[C@]1(C(C)C)C[C@@H](OC(=O)CO)[C@@]2(C)O1 | 12.5 µM |
| C[C@@]1(N2C(=O)OC[C@@H]2c2ccccc2)C(=O)N([C@H](CC(=O)N2CCC(N3CCCCC3)CC2)C(=O)NCc2cccc(C(F)(F)F)c2)[C@@H]1/C=C/c1ccccc1 | 3.53 µM |
| COc1cc(OC)nc(Nc2c(C#N)c3nc4ccccc4n3c3ccccc23)n1 | > 100 µM |
| COc1ccc(Nc2ncccc2C(=O)NCc2cn(Cc3cccc(Oc4ccccc4)c3)nn2)cc1 | > 100 µM |

Please state, for each entry, its recorded TGI.
1. Cc1cc(C#N)c(Nc2c(C)cccc2[N+](=O)[O-])s1
2. Cc1n[nH]c(=O)n1N1C(=O)c2ccccc2C1=O
3. COC(=O)CCC(=O)c1ccc2c(c1)CC1(C2)Cc2ccc3c(c2C1)CCCC3=O (centres undefined)

Result:
["> 100 µM", "> 100 µM", "> 100 µM"]

----------
# Tested on: SNB-78 CNS
# PROTOCOL_DETAILS: NCI tumour cell line growth inhibition, 48 h
PROPERTY: TGI

| MOLECULE | TGI |
| --- | --- |
| O=c1[nH]c(/C=C(\O)c2ccncc2)nc2ccccc12 | > 100 µM |

Can you give me TGI for all of these, one by one?
1. CC[C@]12C=CCN3CCC4(c5cc([C@@]6(C(=O)OC)CC7CN(CCc8c6[nH]c6ccccc86)C[C@@H]6CCC[C@H]76)c(OC)cc5N(C)C4[C@](O)(C(=O)OC)C1OC(C)=O)C32 (some centres undefined)
2. COc1cc([C@@H]2c3cc4c(c(O)c3C[C@H]3COC(=O)[C@@H]32)OCO4)cc(OC)c1O
3. Cc1cc(-c2ccccc2)cc2[n+]1CC=C2

Result:
1. > 2.85 µM
2. > 200 µM
3. > 100 µM

----------
# System: NCI-H23 lung
# PROTOCOL_DETAILS: NCI tumour cell line growth inhibition, 48 h
PROPERTY: TGI

Example entries and their recorded answers appear below.
| MOLECULE | TESTED_SYSTEM | TGI |
| --- | --- | --- |
| COc1ccc([C@@H]2CC(=O)NCCCCNCCCN2)cc1 | NCI-H23 lung | > 100 µM |
| CC(O[Si](C)(C)C)C1C=CC(C)n2c(=O)n(-c3ccccc3)c(=O)n21 (stereo unspecified) | NCI-H23 lung | > 100 µM |

Look at each molecule and report its TGI.
1. O=C1C[C@H]2[C@H](c3ccc(Br)cc3)[C@H]3C(=O)c4ccccc4NC(=O)[C@@H]3[C@@]2(O)c2ccccc2N1
2. CCN(CC(COc1ccc2c(c1)[n+]([O-])nc(N)[n+]2[O-])OC(C)=O)C(C)=O (stereo unspecified)
3. Cc1nc2c(ncn2CCO)c(=O)[nH]1
4. CC(=O)OCc1cn(S(=O)(=O)c2ccc(C)cc2)cn1

Result:
38.9 µM
> 100 µM
> 100 µM
> 100 µM

----------
# Tested on: SK-MEL-5 melanoma
# PROTOCOL_DETAILS: NCI tumour cell line growth inhibition, 48 h
PROPERTY: GI50

Answered examples (2):
| COMPOUND | GI50 |
| --- | --- |
| CC[C@]12CCCN3CC[C@]4(C(=C(C(=O)OC)C1)Nc1ccccc14)[C@@H]32 | 15400 nM |
| CCN1CCN(C(=O)[C@]23CCC(C)(C)C[C@@H]2C2=CC[C@@H]4[C@@]5(C)C/C(=C/c6cccnc6)C(=O)C(C)(C)[C@@H]5CC[C@@]4(C)[C@]2(C)CC3)CC1 | 1630 nM |

Hi, could you look up GI50 for each item in my list?
1. CCCCCCCCCC(CCCC(O)CC(=O)O)OC1OC(COC2OC(C)C(O)C(O)C2O)C(O)C(O)C1OC1OC(CO)C(O)C(O)C1OC1OC(C)C(O)C(O)C1O (centres undefined)
2. COc1cc2c3c(c4c5ccccc5[nH]c4c2c(OC)c1OC)C(=O)N(CCN1CCCCC1)C3=O

Result:
> 40000 nM
1880 nM

----------
# Test system: K-562 leukemia
# PROTOCOL_DETAILS: NCI tumour cell line growth inhibition, 48 h
I'd appreciate it if you could supply TGI values for the items below.

// below: answered compounds
| COMPOUND | TESTED_SYSTEM | TGI |
| --- | --- | --- |
| O=C1OC2C(O)C(=O)OC2C1O (stereo not given) | K-562 leukemia | > 100 µM |
| N#CC1=C(c2ccccc2)C(O)(c2ccccc2)NC1=O (stereo not given) | K-562 leukemia | > 100 µM |
| C[C@@H]1OC(=O)/C(=C\N(C)C)[C@H]2CC(=O)N(CCc3cn(S(=O)(=O)C(F)(F)F)c4ccccc34)C[C@H]12 | K-562 leukemia | > 100 µM |
| CC(=O)NC(CCCCNC(=O)N(C)N=O)C(=O)NCc1ccccc1 (stereo not given) | K-562 leukemia | > 100 µM |
| O=C(O)CNS(=O)(=O)c1ccc(NC(=O)Nc2ccccc2)cc1 | K-562 leukemia | > 100 µM |
| CC(=O)O[C@H]1[C@@H](N2CCN(C)CC2)C[C@H]2[C@@H]3CC=C4C[C@@H](N5CCCC5)CC[C@]4(C)[C@H]3CC[C@@]21C | K-562 leukemia | 33 µM |
| CC([O-])C(=O)[O-].NCC1CCC1CN.[Pt+4] (stereo not given) | K-562 leukemia | > 10 µM |
| C=C1C(=O)OC2/C=C(\C)C3OC3/C=C(/C(=O)OC)C(OC(C)=O)C(OC(=O)C(C)(O)C(C)OC(C)=O)C12 (stereo not given) | K-562 leukemia | 17.1 µM |

Each compound below has a recorded value; state its TGI.
1. CC(=O)OCC1OC(Sc2ccccn2)C=CC1OC(C)=O (stereo not given)
2. COc1cc(/C=C(\C#N)c2ccccn2)cc(Br)c1O

Result:
> 100 µM
> 100 µM

----------
# System: UO-31 renal
# PROTOCOL_DETAILS: NCI tumour cell line growth inhibition, 48 h; in the data active means GI50 below about 0.43 µM; inactive means the rest
Just give me one of these, please: active, inactive

| COMPOUND | TESTED_SYSTEM | LABEL_VALUE |
| --- | --- | --- |
| CC[C@]12CCCN3CC[C@]4(C(=C(C(=O)OC)C1)Nc1ccccc14)[C@@H]32 | UO-31 renal | inactive |
| C/C(=N\NC(=O)c1ccncc1)c1ccc(O)cc1O | UO-31 renal | inactive |
| Cc1ccc(S(=O)(=O)n2cc(-c3nnnn3-c3ccc(Cl)cc3)c(=O)c3ccccc32)cc1 | UO-31 renal | inactive |
| COc1cc(NC(N)=NCCC(C)(C)c2ccc(C(F)(F)F)cc2)ncc1C#N | UO-31 renal | inactive |
| COc1ccc(Cn2c(Br)c3c(c2-c2cc(OC)c(OC)c(OC)c2)CCc2sc(NC(C)=O)nc2-3)cc1 | UO-31 renal | inactive |
| C[C@@]1(N2C(=O)OC[C@@H]2c2ccccc2)C(=O)N([C@H](CC(=O)N2CCC(N3CCCCC3)CC2)C(=O)NCc2cccc(C(F)(F)F)c2)[C@@H]1/C=C/c1ccccc1 | UO-31 renal | inactive |
| CCN1CCN(C(=O)[C@]23CCC(C)(C)C[C@@H]2C2=CC[C@@H]4[C@@]5(C)C/C(=C/c6cccnc6)C(=O)C(C)(C)[C@@H]5CC[C@@]4(C)[C@]2(C)CC3)CC1 | UO-31 renal | inactive |
| COc1cc(-c2cc(CCC(=O)Nc3ccccc3[N+](=O)[O-])n(-c3ccc([N+](=O)[O-])cc3[N+](=O)[O-])n2)ccc1O | UO-31 renal | inactive |
| Nc1nc2c(c3cnccc13)C(c1cccc(Cl)c1)Cc1cnccc1-2 (configuration not stated) | UO-31 renal | inactive |
| NC(N)=Nc1nc2ccccc2[nH]1 | UO-31 renal | inactive |

Task: For COc1cc2c3c(n(CCCCl)c(=O)c2cc1OC)-c1ccc(C#N)cc1C3=O , which call appears in the assay record?
Result: inactive

Task: How did this test come out for O=C(Nc1ccc(Br)cc1F)c1cc(Br)ccc1O ?
Result: active

Task: Entry CN1CCCN(C(c2ccccc2)c2ccc(Br)cc2)CC1 (configuration not stated) : call = ?
Result: inactive

Task: Per the records of this test, what outcome belongs to Cc1ccccc1/C=C1\CN(C(=O)OC(C)(C)C)C/C(=C\c2ccccc2C)C1=O ?
Result: inactive

Task: Short answer needed: outcome of this test for CC/C=C\C/C=C\C[C@H]1C/C=C2/C(=O)C=C[C@H]2C/C=C\CCC(=O)O1 ?
Result: inactive

Task: Tell me the assay call for COc1cc(OC)cc(-c2cncn2-c2ccc(-c3nc4cc(OC)c(OC)c(OC)c4s3)cc2)c1 please.
Result: inactive

Task: Give the logged outcome of this assay for the following compound: O=S(=O)(NCCCNc1cc(-c2cn(-c3ccccc3)nc2-c2cccc(O)c2)ccn1)c1ccc(Cl)cc1
Result: inactive
